- Test system: L. infantum
- measurement_protocol: Antileishmanial activity against L. infantum amastigotes in THP-1 macrophages
- Type: cell-based
- condition_info: Leishmania infantum; growth of L. infantum in THP-1 macrophages, 72 h
Lab note: cut-off is 3 µM. Strictly less in IC50 is yes (1). Exactly 3 µM or more is no (0).

# compound, label_value
measured = [
    ("COc1ccc(C(=O)N2CCN(c3cnccn3)CC2)cc1", "no (0)"),
    ("C[C@@H]1[C@H](O)[C@@H](C)/C=C/C=C/C=C/C=C/C=C/C=C/C=C/[C@H](O[C@@H]2O[C@H](C)[C@@H](O)[C@H](N)[C@@H]2O)C[C@@H]2O[C@](O)(C[C@@H](O)C[C@@H](O)[C@H](O)CC[C@@H](O)C[C@@H](O)CC(=O)O[C@H]1C)C[C@H](O)[C@H]2C(=O)O [AmB, Amphotericin B, reference compound]", "yes (1)"),
    ("O=C(c1ccc2cc(O)ccc2c1)N1CCN(c2cnccn2)CC1", "no (0)"),
    ("O=C(c1ccc(O)cc1)N1CCN(c2cnccn2)CC1", "no (0)"),
    ("Nc1ccc(C(=O)N2CCN(c3cnccn3)CC2)cn1", "no (0)"),
    ("O=C(c1ccc(O)c(Cl)c1)N1CCN(c2cnccn2)CC1", "no (0)"),
    ("O=C(c1cccc(O)c1O)N1CCN(c2cnccn2)CC1", "yes (1)"),
]

====

# reported microsomal CLint at 5 μM; entries follow
- measurement_protocol: Metabolic stability in mouse liver microsomes
- Assay type: in vitro ADME
- condition_info: pH 7.4, MLM, with NADPH cofactor, read-out: Clint, intrinsic clearance
metric: microsomal CLint at 5 μM (µL/min/mg)

# smiles_data, unit_spec, numeric_result
rows = [
    ("O=C(c1ccc(O)c(Cl)c1)N1CCN(c2cnccn2)CC1", "µL/min/mg", 1.23),
    ("COc1ccc(C(=O)N2CCN(c3cnccn3)CC2)cc1", "µL/min/mg", 0.925),
    ("O=C(c1ccc2cc(O)ccc2c1)N1CCN(c2cnccn2)CC1", "µL/min/mg", 0.8),
    ("O=C(c1cccc(O)c1O)N1CCN(c2cnccn2)CC1", "µL/min/mg", 4.2),
    ("O=C(c1ccc(O)cc1)N1CCN(c2cnccn2)CC1", "µL/min/mg", 0.55),
    ("Nc1ccc(C(=O)N2CCN(c3cnccn3)CC2)cn1", "µL/min/mg", 0.675),
]

====

- measurement_protocol: Metabolic stability in mouse liver microsomes
- Format: in vitro ADME
- condition_info: pH 7.4, MLM, with NADPH cofactor, read-out: t1/2, microsomal half-life
So basically: half-life at 5 μM at 4 h or higher? That is fulfilled. Lower than 4 h? That is not fulfilled.

# smiles_data, label_value
records = [
    ("O=C(c1ccc(O)cc1)N1CCN(c2cnccn2)CC1", "fulfilled"),
    ("COc1ccc(C(=O)N2CCN(c3cnccn3)CC2)cc1", "not fulfilled"),
    ("Nc1ccc(C(=O)N2CCN(c3cnccn3)CC2)cn1", "fulfilled"),
    ("O=C(c1cccc(O)c1O)N1CCN(c2cnccn2)CC1", "not fulfilled"),
    ("O=C(c1ccc2cc(O)ccc2c1)N1CCN(c2cnccn2)CC1", "not fulfilled"),
    ("O=C(c1ccc(O)c(Cl)c1)N1CCN(c2cnccn2)CC1", "not fulfilled"),
]
